# System: COLO 205
# ASSAY_PROTOCOL: Anticancer activity against human COLO205 cells after 48 hrs by MTT assay
# Type: functional, cell-based
# REPORTED_CONDITIONS: COLO 205, 48 h
pIC50: −log10 of the molar value.
The following molecules are listed with their measured pIC50 values.
TEST_READOUT: pIC50

{"MOL_SMILES": "COc1cc2c(cc1OCCCCN1C(=O)c3cccc4cccc1c34)N=C[C@@H]1CCCN1C2=O", "TEST_READOUT": "pIC50", "MEAS_VALUE": 5.48}
{"MOL_SMILES": "COc1cc2c(cc1OCCCCCCN1C(=O)c3cccc4cccc1c34)N=C[C@@H]1CCCN1C2=O", "TEST_READOUT": "pIC50", "MEAS_VALUE": 4.85}
{"MOL_SMILES": "COc1cc2c(cc1OCCCCCn1c(=C(C#N)C#N)c3cccc4cccc1c43)N=C[C@@H]1CCCN1C2=O", "TEST_READOUT": "pIC50", "MEAS_VALUE": 4.59}
{"MOL_SMILES": "COc1cc2c(cc1OCCCCCN1C(=O)c3cccc4cccc1c34)N=C[C@@H]1CCCN1C2=O", "TEST_READOUT": "pIC50", "MEAS_VALUE": 5.01}
{"MOL_SMILES": "COc1cc2c(cc1OCCCCCCN1c3cccc4cccc(c34)S1(=O)=O)N=C[C@@H]1CCCN1C2=O", "TEST_READOUT": "pIC50", "MEAS_VALUE": 5.92}
{"MOL_SMILES": "COc1cc2c(cc1OCCCCCCn1c(=C(C#N)C#N)c3cccc4cccc1c43)N=C[C@@H]1CCCN1C2=O", "TEST_READOUT": "pIC50", "MEAS_VALUE": 4.78}
{"MOL_SMILES": "COc1cc2c(cc1OCCCn1c(=C(C#N)C#N)c3cccc4cccc1c43)N=C[C@@H]1CCCN1C2=O", "TEST_READOUT": "pIC50", "MEAS_VALUE": 5.21}
{"MOL_SMILES": "COc1cc2c(cc1OCCCCN1c3cccc4cccc(c34)S1(=O)=O)N=C[C@@H]1CCCN1C2=O", "TEST_READOUT": "pIC50", "MEAS_VALUE": 5.43}
{"MOL_SMILES": "COc1cc2c(cc1OCCCN1c3cccc4cccc(c34)S1(=O)=O)N=C[C@@H]1CCCN1C2=O", "TEST_READOUT": "pIC50", "MEAS_VALUE": 5.12}
{"MOL_SMILES": "COc1cc2c(cc1OCCCCn1c(=C(C#N)C#N)c3cccc4cccc1c43)N=C[C@@H]1CCCN1C2=O", "TEST_READOUT": "pIC50", "MEAS_VALUE": 5.53}
{"MOL_SMILES": "COc1cc2c(cc1O)N=C[C@@H]1CCCN1C2=O", "TEST_READOUT": "pIC50", "MEAS_VALUE": 6.07}
{"MOL_SMILES": "COc1cccc2c1C(=O)c1c(O)c3c(c(O)c1C2=O)C[C@@](O)(C(=O)CO)C[C@@H]3O[C@H]1C[C@H](N)[C@H](O)[C@H](C)O1", "TEST_READOUT": "pIC50", "MEAS_VALUE": 5.77}
{"MOL_SMILES": "COc1cc2c(cc1OCCCN1C(=O)c3cccc4cccc1c34)N=C[C@@H]1CCCN1C2=O", "TEST_READOUT": "pIC50", "MEAS_VALUE": 5.06}
{"MOL_SMILES": "COc1cc2c(cc1OCCCCCN1c3cccc4cccc(c34)S1(=O)=O)N=C[C@@H]1CCCN1C2=O", "TEST_READOUT": "pIC50", "MEAS_VALUE": 4.82}
